System: HL60 cells (human acute myelogenous leukaemia)
Assay: MTT cytotoxicity test, HL60 cells
Format: cell-based
Conditions: Homo sapiens, HL-60, MTT, 48h incubation
value kind: pIC50
Give bare numbers, as −log10 of the molar value.

Example entries begin here.
Query string: Please look up its pIC50: COC(=O)c1c(C)oc2cc(C(=O)C(Cl)Cl)c(O)c(Cl)c12 [Compound 1e]
Result string: 5.52

Query string: Please look up its pIC50: COC(=O)c1c(C)oc2cc(C(=O)C(Br)Br)c(O)c(Br)c12 [Compound 1b]
Result string: 5.40

Query string: Please look up its pIC50: COC(=O)c1c(C)oc2cc(C(=O)C(Br)Br)c(OC)cc12 [Compound 1c]
Result string: 5.40

# input for lookup
Query string: Please look up its pIC50: COc1cc2c(CBr)c(C(C)=O)oc2c(C(C)=O)c1OC [Compound 1a]
Result string: 7.00
